// data source = patent US20080160035A1

Target: T1, monomeric hIL-4R (R&D Systems) (human, UniProt P24394 26-231)
T1 construct: Bought (R&D Systems); also called hIL-4R monomer
T1 sequence: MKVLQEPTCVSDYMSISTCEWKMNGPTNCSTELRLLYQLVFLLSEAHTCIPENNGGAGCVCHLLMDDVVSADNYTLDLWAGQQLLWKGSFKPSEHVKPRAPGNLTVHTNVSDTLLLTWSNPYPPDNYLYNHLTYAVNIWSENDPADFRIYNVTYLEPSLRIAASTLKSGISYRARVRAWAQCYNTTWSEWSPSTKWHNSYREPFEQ
Assay: SPR (BIAcore 2000); antibody captured, monomeric hIL-4R injected
Method: Binding affinity (KD) of selected antibodies with respect to hIL-4R was determined using a real-time biosensor surface plasmon resonance assay (BIAcore™ 2000). Briefly, antibody was captured on a goat anti-mouse (GAM) IgG polyclonal antibody surface created through direct chemical coupling of the GAM IgG to a BIAcore™ chip to form a captured antibody surface. […] Binding of antigen to antibody and dissociation of the bound complex, were monitored in real time. […]
recorded metric: Kd (nM)
// note: answer is a bare numeric in nM

| binder | recorded metric | assay result |
| --- | --- | --- |
| VAK10G12-5 (antibody, V domains shown, Apparently tested with mouse constant region (anti-mouse IgG capture/detection)) VH: QVQLVESGGGVVQPGGSLRLSCAASGFTFSSYGMHWVRQAPGRGLEWVAVLSYDGSKEFYADSVKVRFTVSRDNSKNTLYLQMSSLRVEDTAIYFCAKEGRTGNWFDPWGQGTLVAVSS VL: DIQMTQSPSSLSASVGDRVTITCRASQAINNFLAWFQQKPGKTPKSLIFATSSLQSGVPSRFSGSESGTDFTLTISSLQPEDFATYYCQQYNSHPWTFGQGTKVEIK | Kd | 0.09 |

Kindly note the recorded Kd for VAK10G6-7 (antibody, V domains shown, Apparently tested with mouse constant region (anti-mouse IgG capture/detection)) VH: QVQLVESGGGVVQPGRSLRLSCTASGFTFSSFGMHWVRQAPGRGLEWVAVISYDGSKKYYADSVKVRFTISRDNSKNTLYLQMNSLRVDDTAVYFCAKEGRTGNWFDPWGQGTLVAVSS VL: DIQMTQSPSSLSASVGDRVTITCRASQAINNYLAWFQQKPGKTPKSLIFATSSLQSGVPSRFSGTGSGTDFTLTISSLQPEDFATYYCQQYNSHPWTFGQGTKVEIR , which is 0.23

Kindly note the recorded Kd for VAK9C6-11 (antibody, V domains shown, Apparently tested with mouse constant region (anti-mouse IgG capture/detection)) VH: QVQLVESGGGVVQPGRSLRLSCAASGFTFSSYGMHWVRQAPGKGLEWVTVISYDGSIKYYVDSVKGRFTISRDNSKNTLFLQMNSLRVEDTAVYYCAKEGRKYGMDVWGQGTTVTVSS VL: DIQMTQSPSTLSASVGDRVTITCRASQIISSLLVWYQQKPGKAPKLLIYKASSLESGVPSRFSGSGSGTEFTLTISSLQPDDFATYYCQQYHSYMYTFGQGTKLEIK , which is 2.05
